Data origin: patent US20250388576A1

Molecular target: RSK4 kinase (Homo sapiens (Human), UniProt Q9UK32)
Sequence (Q9UK32 whole entry): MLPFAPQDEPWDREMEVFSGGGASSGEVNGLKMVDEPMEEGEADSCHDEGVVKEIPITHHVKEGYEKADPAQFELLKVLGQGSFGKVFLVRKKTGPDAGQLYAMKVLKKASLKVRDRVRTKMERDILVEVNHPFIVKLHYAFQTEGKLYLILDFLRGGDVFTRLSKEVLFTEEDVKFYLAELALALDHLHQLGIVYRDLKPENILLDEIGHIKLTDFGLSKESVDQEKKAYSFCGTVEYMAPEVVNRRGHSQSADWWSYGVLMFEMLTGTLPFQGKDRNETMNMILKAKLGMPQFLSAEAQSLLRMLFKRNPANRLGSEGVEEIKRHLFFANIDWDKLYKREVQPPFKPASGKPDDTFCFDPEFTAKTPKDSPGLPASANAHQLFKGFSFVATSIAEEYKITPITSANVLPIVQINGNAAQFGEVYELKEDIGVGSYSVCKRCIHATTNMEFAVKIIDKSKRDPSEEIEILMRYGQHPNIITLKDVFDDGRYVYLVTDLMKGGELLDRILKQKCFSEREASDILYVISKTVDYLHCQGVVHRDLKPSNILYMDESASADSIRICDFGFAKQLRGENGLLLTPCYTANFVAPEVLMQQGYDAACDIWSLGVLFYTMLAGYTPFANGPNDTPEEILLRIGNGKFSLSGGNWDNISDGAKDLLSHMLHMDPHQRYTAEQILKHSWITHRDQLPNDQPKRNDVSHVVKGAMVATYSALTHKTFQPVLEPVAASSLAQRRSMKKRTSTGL
ASSAY METRIC: IC50 (nM)
Give just the number in nM; leave the unit off.

Would you please look over these solved cases?
{"COMPOUND": "Cc1cc(=O)n(C2CCC(F)(F)C2)c2nc(Nc3ccc4c(c3)CC(=O)N4)ncc12 (stereo not shown)", "TESTED TARGET": "RSK4 kinase (Homo sapiens (Human), UniProt Q9UK32)", "IC50 [nM]": 46}
{"COMPOUND": "Cc1cc(=O)n(C2CCCCC2)c2nc(Nc3ccc4[nH]ncc4c3)ncc12", "TESTED TARGET": "RSK4 kinase (Homo sapiens (Human), UniProt Q9UK32)", "IC50 [nM]": 86}
{"COMPOUND": "Cc1c(Br)c(=O)n(C2CCCC2)c2nc(Nc3ccc4c(c3)CC(=O)N4)ncc12", "TESTED TARGET": "RSK4 kinase (Homo sapiens (Human), UniProt Q9UK32)", "IC50 [nM]": 214}
{"COMPOUND": "Cc1cc(=O)n(C2CCCC2)c2nc(Nc3ccc4c(c3)CC(=O)N4)ncc12", "TESTED TARGET": "RSK4 kinase (Homo sapiens (Human), UniProt Q9UK32)", "IC50 [nM]": 17}
{"COMPOUND": "Cc1cc(=O)n(C2CCCC2)c2nc(Nc3ccc4[nH]c(=O)oc4c3)ncc12", "TESTED TARGET": "RSK4 kinase (Homo sapiens (Human), UniProt Q9UK32)", "IC50 [nM]": 10800}
{"COMPOUND": "Cc1cc(=O)n(C2CCCC2)c2nc(Nc3cnc4[nH]ncc4c3)ncc12", "TESTED TARGET": "RSK4 kinase (Homo sapiens (Human), UniProt Q9UK32)", "IC50 [nM]": 39}

The compound Cc1c(Br)c(=O)n(C2CCCC2)c2nc(Nc3ccc4[nH]ncc4c3)ncc12 on RSK4 kinase (Homo sapiens (Human), UniProt Q9UK32): IC50 was 44

The compound Cc1cc(=O)n(C2CCCC2)c2nc(Nc3ccc(F)c4[nH]ncc34)ncc12 on RSK4 kinase (Homo sapiens (Human), UniProt Q9UK32): IC50 was 180

The compound Cc1cc(=O)n(C2CCC(O)C2)c2nc(Nc3ccc4[nH]ncc4c3)ncc12 (stereo not shown) on RSK4 kinase (Homo sapiens (Human), UniProt Q9UK32): IC50 was 30

The compound Cc1cc(=O)n(C2CCCCCC2)c2nc(Nc3ccc4[nH]ncc4c3)ncc12 on RSK4 kinase (Homo sapiens (Human), UniProt Q9UK32): IC50 was 201

====

Tested on: renal cancer cells ACHN
Test: Anti-cell proliferation activity (CCK8), ACHN
Format: cell-based
Conditions: Homo sapiens, 72 hours
// values below are reported pIC50
For clarity, pIC50 is expressed as the negative log10 of concentration in mol/L.

Would you please look over these solved cases?
{"COMPOUND": "Cc1cc(=O)n(C2CCCC2)c2nc(Nc3cc(F)c(O)c(F)c3)ncc12", "OBSERVED RESULT": 5.51}
{"COMPOUND": "Cc1cc(=O)n(C2CCCC2)c2nc(Nc3ccc4c(c3)CC(=O)N4)ncc12", "OBSERVED RESULT": 5.71}

Moving on to the next compound.
The compound Cc1cc(=O)n(C2CCC(F)(F)C2)c2nc(Nc3cc(F)c4[nH]ncc4c3)ncc12 (stereo not shown) on renal cancer cells ACHN: pIC50 was 6.06
